// provenance: patent US20210261671A1

Reported FLT3/control values are given for each entry in this list.
Target: T1, human FLT3 protein (human, UniProt P36888 27-541, limits assumed)
T1 construct: protein coated in the screening ELISA; also called ELISA FLT3
Experiment: colorimetric ELISA, signal over control wells lacking FLT3
ENDPOINT_NAME: FLT3/control (ratio)

BINDER	ENDPOINT_NAME	VALUE_REPORTED
FLL8 (VHH, llama anti-FLT3 variable domain; E. coli periplasmic extract) VHH: QVQLQESGGGLVQVGGSLMVSCAASGGTFSSYATGWFRQVPGKEREFIAGISRNSGRTYYAESVKGRFTISRDNAKNTVYLQMNTLKPDDTAVYYCAAARYFTRDVVYTSGDDYDYWGQGTQVTVSS	FLT3/control	14
FLL15 (VHH, llama anti-FLT3 variable domain; E. coli periplasmic extract) VHH: QVQLQESGGGLVQAGGSLSLSCAASEGTISHAAMGWFRQAPGKERQFVAYDTWTGGSTNYADSVKDRFTITGDHAKNTVYLQMNSLKPEDTGVYYCAVRGRYSASYTYTNPASYKYWGQGTQVTVSS	FLT3/control	31
FLL78 (VHH, llama anti-FLT3 variable domain; E. coli periplasmic extract) VHH: QVQLQESGGGWVQAGGSLRLSCAASGRTFSSYAMGWFRQAPGKEREFVAAISWSGSSTYYADSVKGRFTISRDNAKNTVYLLMDSLKPEDTAVYYCAAGGSTRVVVTTTPVVKYWGQGTQVTVSS	FLT3/control	27
FLL116 (VHH, llama anti-FLT3 variable domain; E. coli periplasmic extract) VHH: QVQLQESGGGLVQAGGSLRLSCAASGVTFSINYIDWYRQAPGKQREWVAQITRDSNSFYADSVKGRFAISRDNAKNTVYLQMNSLKPEDTAVYYCRVLSYWGQGTQVTVSS	FLT3/control	5
